applied conditions: in water, 283.15 K
test readout: solubility (mole fraction)

Form: molecule = "O=C(O)[C@@H]1CSCN1" ; solubility (mole fraction) = 0.00296

====

applied conditions: in water, 323.15 K
test readout: solubility (mole fraction)
Give a plain numeric answer without units written out.

For reference, reported solubility (mole fraction) for "O=C(O)[C@@H]1CSCN1" stands at 0.00773

====

applied conditions: in isopropanol, 303.15 K
test readout: solubility (mole fraction)
Give the figure only, with no unit attached.

Query "O=C(O)[C@@H]1CSCN1" yields solubility (mole fraction) of 9.8e-05

====

applied conditions: in isopropanol, 283.15 K
test readout: solubility (mole fraction)

Briefly, solubility (mole fraction) measured for "O=C(O)[C@@H]1CSCN1" : 3.7e-05

====

applied conditions: in ethanol, 303.15 K
test readout: solubility (mole fraction)
The reply should be a number, written without any unit.

Summary for this compound, "O=C(O)[C@@H]1CSCN1" : solubility (mole fraction) is 0.00018

====

applied conditions: in 1,4-dioxane, 293.15 K
test readout: solubility (mole fraction)
Give your answer as a number; write no unit.

According to the records, this compound "O=C(O)[C@@H]1CSCN1" displays solubility (mole fraction) of 0.000384

====

applied conditions: in acetone, 303.15 K
test readout: solubility (mole fraction)
Please give only the number in your answer, with no unit.

// recorded solubility (mole fraction) for "O=C(O)[C@@H]1CSCN1" : 0.000537

====

applied conditions: in isopropanol, 313.15 K
test readout: solubility (mole fraction)
Respond using a number only.

solubility (mole fraction) reading for "O=C(O)[C@@H]1CSCN1" : 0.000127

====

applied conditions: in acetonitrile, 313.15 K
test readout: solubility (mole fraction)

solubility (mole fraction) in this record for "O=C(O)[C@@H]1CSCN1" : 6.8e-05

====

applied conditions: in acetone, 283.15 K
test readout: solubility (mole fraction)
API doc: respond with a numeric literal and nothing else, no unit.

In plain terms, "O=C(O)[C@@H]1CSCN1" has a documented solubility (mole fraction) of 0.00018

====

applied conditions: in ethanol, 283.15 K
test readout: solubility (mole fraction)
Output: the number by itself.

So, "O=C(O)[C@@H]1CSCN1" ? Its solubility (mole fraction) was 9e-05

====

applied conditions: in acetonitrile, 303.15 K
test readout: solubility (mole fraction)

solubility (mole fraction) reading for "O=C(O)[C@@H]1CSCN1" : 4.8e-05

====

applied conditions: in dichloromethane, 288.15 K
test readout: solubility (mole fraction)
// response body must contain only the number

Looking up "O=C(O)[C@@H]1CSCN1" , I see its solubility (mole fraction) listed as 5.1e-05

====

applied conditions: in 1,4-dioxane, 313.15 K
test readout: solubility (mole fraction)

The recorded solubility (mole fraction) for "O=C(O)[C@@H]1CSCN1" is 0.000589
